Experiment: The drug is tested on Z-020 corresponding to rabbit gut metagenome with ENA study accession number: PRJEB37062 and ENA sample accession number: ERS12561819 for biotransformation under anaerobic condition. The drug concentrations were measured over 9 timepoints collected between 0 and 24 hours of incubation by liquid-chromatography-coupled mass spectrometry (LC–MS); also: call rule not given here
Conditions: 2 µM
Readout Label: Bacterial Biotransformation

Example cases with answers are listed next.
> print(dat)
                                   molecule                readout.label                    result
1  O=P1(N(CCCl)CCCl)NCCCO1 (stereo unspecified) [CYCLOPHOSPHAMIDE ANHYDROUS]  Bacterial Biotransformation  Compound NOT metabolized
2  COc1ccc2c(c1)c(CC(=O)O)c(C)n2C(=O)c1ccc(Cl)cc1  Bacterial Biotransformation      Compound metabolized
3  Nc1nc(N)nc(-c2cc(Cl)ccc2Cl)n1.O=C(O)/C=C\C(=O)O [IRSOGLADINE MALEATE]  Bacterial Biotransformation  Compound NOT metabolized
4  CCN(CC)CCNC(=O)c1ccc(NC(C)=O)cc1 [ACECAINIDE]  Bacterial Biotransformation  Compound NOT metabolized
5  CN(C)CCC=C1c2ccccc2COc2ccccc21 [DOXEPIN]  Bacterial Biotransformation  Compound NOT metabolized
6             Nc1nnc(-c2cccc(Cl)c2Cl)c(N)n1  Bacterial Biotransformation  Compound NOT metabolized
7  CC#C[C@]1(O)CC[C@H]2[C@@H]3CCC4=CC(=O)CCC4=C3[C@@H](c3ccc(N(C)C)cc3)C[C@@]21C  Bacterial Biotransformation      Compound metabolized
8  CCN(C(C)=O)c1cccc(-c2ccnc3c(C#N)cnn23)c1  Bacterial Biotransformation      Compound metabolized

[ask] Returns the measured Bacterial Biotransformation for the input molecule. Input: OCCN(CCO)c1nc(N2CCCCC2)c2nc(N(CCO)CCO)nc(N3CCCCC3)c2n1
[reply] Compound NOT metabolized

[ask] Next record, please: CC(CCc1ccccc1)NCC(O)c1ccc(O)c(C(N)=O)c1 (stereo unspecified)
[reply] Compound NOT metabolized

[ask] Next record, please: CCOc1ccccc1OCCN[C@H](C)Cc1ccc(OC)c(S(N)(=O)=O)c1.Cl [TAMSULOSIN HYDROCHLORIDE]
[reply] Compound NOT metabolized

====

Settings: human gut metagenome, 24 h, 2 µM
Readout Label: Bacterial Biotransformation

> print(dat)
                                   molecule                readout.label                    result
1  CSc1ccc2c(c1)C(N1CCN(C)CC1)Cc1ccccc1S2.O=C(O)/C=C\C(=O)O (centres undefined)  Bacterial Biotransformation  Compound NOT metabolized
2  COc1ccc(Cc2nccc3cc(OC)c(OC)cc23)cc1OC [PAPAVERINE]  Bacterial Biotransformation      Compound metabolized
3  CNNCc1ccc(C(=O)NC(C)C)cc1 [PROCARBAZINE]  Bacterial Biotransformation      Compound metabolized
4  c1ccc2[nH]c(-c3cscn3)nc2c1 [THIABENDAZOLE]  Bacterial Biotransformation      Compound metabolized
5  CCN(CC)C(=O)C1(c2ccccc2)CC1CN (centres undefined)  Bacterial Biotransformation  Compound NOT metabolized
6    CC(=O)Nc1ccc(OC(C)=O)cc1 [DIACETAMATE]  Bacterial Biotransformation      Compound metabolized

[ask] Returns the measured Bacterial Biotransformation for the input molecule. Input: CCN(C)C(=O)Oc1cccc([C@H](C)N(C)C)c1.O=C(O)C(O)C(O)C(=O)O [RIVASTIGMINE TARTRATE]
[reply] Compound NOT metabolized

[ask] Next record, please: CN[C@H]1CC[C@@H](c2ccc(Cl)c(Cl)c2)c2ccccc21 [SERTRALINE]
[reply] Compound metabolized

[ask] Next record, please: Cc1nc(Nc2ncc(C(=O)Nc3c(C)cccc3Cl)s2)cc(N2CCN(CCO)CC2)n1 [DASATINIB ANHYDROUS]
[reply] Compound metabolized
